- Target System: [35S]-TBPS binding, rat brain cortical membranes
- Test Description: Steroid inhibition of [35S]-TBPS binding
- Condition Notes: 3 nM [35S]-TBPS, in the presence of 5 mM GABA
pIC50: −log10 of the molar value.
Answer each item with its documented pIC50.

Some solved cases for reference:
[[record]]
molecule = "C[C@@H](Cn1ccnn1)[C@H]1CC[C@H]2[C@@H]3CC[C@H]4C[C@](C)(O)CC[C@@H]4[C@H]3CC[C@]12C [Example 59]"
measured_endpoint = "pIC50"
reported = "6.00 to 7.00"

[[record]]
molecule = "CCC[C@@]1(O)CC[C@H]2[C@@H](CC[C@@H]3[C@@H]2CC[C@]2(C)[C@@H]([C@@H](C)Cn4cc(C#N)cn4)CC[C@@H]32)C1 [Example 349]"
measured_endpoint = "pIC50"
reported = "≤ 5.00"


Dear colleague, I am looking for the recorded pIC50 of the following molecule: COc1cncc(C[C@@H](C)[C@H]2CC[C@H]3[C@@H]4CC[C@@H]5C[C@](C)(O)CC[C@@H]5[C@H]4CC[C@]23C)c1 [Example 433]
> 7.00

* * *

- Target System: human GABAA receptors composed of the α4β3δ subunits (Homo sapiens (Human), UniProt O14764+P28472+P48169)
- Sequence (P48169 36-554 limits assumed): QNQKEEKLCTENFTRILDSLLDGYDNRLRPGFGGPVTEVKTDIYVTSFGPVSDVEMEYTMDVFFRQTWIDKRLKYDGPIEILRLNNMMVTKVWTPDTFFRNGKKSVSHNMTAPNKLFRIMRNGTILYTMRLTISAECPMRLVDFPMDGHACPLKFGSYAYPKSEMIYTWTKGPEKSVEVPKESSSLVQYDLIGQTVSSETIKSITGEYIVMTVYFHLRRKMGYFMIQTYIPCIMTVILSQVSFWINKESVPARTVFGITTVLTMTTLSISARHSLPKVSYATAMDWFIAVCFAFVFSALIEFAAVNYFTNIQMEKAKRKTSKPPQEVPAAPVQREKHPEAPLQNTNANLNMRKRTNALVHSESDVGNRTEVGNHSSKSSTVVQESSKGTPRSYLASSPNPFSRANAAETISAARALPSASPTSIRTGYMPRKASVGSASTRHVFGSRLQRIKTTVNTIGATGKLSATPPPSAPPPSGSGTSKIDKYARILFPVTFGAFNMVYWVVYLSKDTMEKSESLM
- Sequence (P28472 26-473 limits assumed): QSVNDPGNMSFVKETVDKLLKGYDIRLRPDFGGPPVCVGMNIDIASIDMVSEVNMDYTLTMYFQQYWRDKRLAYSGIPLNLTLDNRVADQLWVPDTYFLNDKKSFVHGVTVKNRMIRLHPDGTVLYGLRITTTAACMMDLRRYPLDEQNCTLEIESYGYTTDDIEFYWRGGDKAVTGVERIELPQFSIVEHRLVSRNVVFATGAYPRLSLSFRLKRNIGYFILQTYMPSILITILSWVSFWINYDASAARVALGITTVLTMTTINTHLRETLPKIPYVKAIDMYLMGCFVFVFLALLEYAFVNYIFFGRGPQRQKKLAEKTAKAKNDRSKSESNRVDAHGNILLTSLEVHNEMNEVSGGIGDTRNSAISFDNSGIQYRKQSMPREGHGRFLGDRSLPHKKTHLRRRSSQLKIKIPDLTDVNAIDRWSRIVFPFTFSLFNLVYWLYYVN
- Sequence (O14764 17-452 limits assumed): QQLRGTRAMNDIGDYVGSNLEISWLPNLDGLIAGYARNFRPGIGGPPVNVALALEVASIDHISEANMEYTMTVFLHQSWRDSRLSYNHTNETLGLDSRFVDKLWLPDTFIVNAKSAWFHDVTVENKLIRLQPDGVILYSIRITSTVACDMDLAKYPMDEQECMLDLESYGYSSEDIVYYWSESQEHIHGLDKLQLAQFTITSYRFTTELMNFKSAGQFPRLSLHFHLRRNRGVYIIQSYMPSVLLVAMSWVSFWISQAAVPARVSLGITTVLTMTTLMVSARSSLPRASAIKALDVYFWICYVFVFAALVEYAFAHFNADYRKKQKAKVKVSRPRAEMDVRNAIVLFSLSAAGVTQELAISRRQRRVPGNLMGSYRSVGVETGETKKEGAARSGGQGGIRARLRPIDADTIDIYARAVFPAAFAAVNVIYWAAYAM
- Test Description: α4β3δ SyncroPatch automated patch clamp assay
- Condition Notes: HEK cells, potentiation of submaximal GABA current, clamped at −120 mV
- Method: The SyncroPatch 384PE (Nanion, Germany) automated patch clamp platform was used to obtain recordings from human embryonic kidney cells stably expressing human GABAA receptors composed of the α1β2γ2 and α4β3δ subunits. […] Compound effect was determined by dividing peak current amplitude after GABA+compound by peak current amplitude after GABA alone. EC50 and Emax values were determined from average values for each concentration.
Could you please report measured EC50 for the items listed next?

Use the examples below as a reference point.
[[record]]
molecule = "CCOC[C@@]1(O)CC[C@H]2[C@H](CC[C@@H]3[C@@H]2CC[C@]2(C)[C@@H]([C@H](Cn4cc(C#N)cn4)C(F)(F)F)CC[C@@H]32)C1"
measured_endpoint = "EC50"
reported = "200 to 1000 nM"

[[record]]
molecule = "CCC[C@@]1(O)CC[C@H]2[C@H](CC[C@@H]3[C@@H]2CC[C@]2(C)[C@@H]([C@@H](C)Cn4cc(C#N)cn4)CC[C@@H]32)C1"
measured_endpoint = "EC50"
reported = "< 200 nM"

[[record]]
molecule = "CCOC[C@@]1(O)CC[C@H]2[C@H](CC[C@@H]3[C@@H]2CC[C@]2(C)[C@@H]([C@@H](C)Nc4cccc(N5CCCC5=O)n4)CC[C@@H]32)C1"
measured_endpoint = "EC50"
reported = "200 to 1000 nM"


Consider the following items and state reported EC50 for each.
1. CCC[C@@]1(O)CC[C@H]2[C@H](CC[C@@H]3[C@@H]2CC[C@]2(C)[C@@H]([C@@H](C)Cn4nnc(C)n4)[C@@H](O)C[C@@H]32)C1
2. COC[C@@]1(O)CC[C@H]2[C@H](CC[C@@H]3[C@@H]2CC[C@]2(C)[C@@H]([C@@H](C)Cc4ccc(C(F)(F)F)nc4)CC[C@@H]32)C1
3. CCOC[C@@]1(O)CC[C@@]2(C)[C@H](CC[C@@H]3[C@@H]2CC[C@]2(C)[C@@H]([C@@H](C)Cn4nccc4C#N)CC[C@@H]32)C1
4. CCC[C@@]1(O)CC[C@H]2[C@H](CC[C@@H]3[C@@H]2CC[C@]2(C)[C@@H]([C@H](C)Cn4nnc(C)n4)CC[C@@H]32)C1
5. CCC[C@@]1(O)CC[C@H]2[C@H](CC[C@@H]3[C@@H]2CC[C@]2(C)[C@@H]([C@H](C)Cn4nnnc4C)CC[C@@H]32)C1
6. CCOC[C@@]1(O)CC[C@H]2[C@H](CC[C@@H]3[C@@H]2CC[C@]2(C)[C@@H]([C@H](C)Cn4ccc(C#N)n4)CC[C@@H]32)C1
7. CCC[C@@]1(O)CC[C@@]2(C)[C@H](CC[C@H]3[C@@H]4CC[C@H](C(C)Cn5cc(C#N)cn5)[C@@]4(C)CC(=O)[C@@H]32)C1 (stereo in doubt)

["200 to 1000 nM", "< 200 nM", "< 200 nM", "200 to 1000 nM", "200 to 1000 nM", "200 to 1000 nM", "< 200 nM"]

Below is a list of molecules. For each, state its recorded EC50.
1. CCOC[C@@]1(O)CC[C@@]2(C)[C@H](CC[C@@H]3[C@@H]2CC[C@]2(C)[C@@H]([C@H](C)Cn4ccc(C#N)n4)CC[C@@H]32)C1
2. CCOC[C@@]1(O)CC[C@H]2[C@H](CC[C@@H]3[C@@H]2CC[C@]2(C)[C@@H]([C@@H](C)Cc4cccc(C#N)n4)CC[C@@H]32)C1

1. < 200 nM
2. < 200 nM

Batch request: EC50 per item, same order as input.
1. CCOC[C@@]1(O)CC[C@H]2[C@H](CC[C@@H]3[C@@H]2CC[C@]2(C)[C@@H]([C@H](C)Cn4cc(C#N)cn4)CC[C@@H]32)C1
2. C[C@@H](Cn1cc(C#N)cn1)[C@H]1CC[C@H]2[C@@H]3CC[C@@H]4C[C@@](O)(CC5CC5)CC[C@@H]4[C@H]3CC[C@]12C

1: 200 to 1000 nM; 2: < 200 nM
